Data credit: ChEMBL document CHEMBL1157539

Test system: Plasmodium falciparum
Experiment: GSK_TCMDC: Inhibition of Plasmodium falciparum Dd2 in whole red blood cells, using parasite LDH activity as an index of growth. Test compounds present at 2uM
Format: functional
property: Inhibition (%)
Return type: number; implicit unit %.

Provide Inhibition, tested on Plasmodium falciparum, for Cc1noc(C)c1-c1ccc2c(Nc3ccccc3C(C)(C)C)c(C(=O)NCc3ccc(C(F)(F)F)cc3)cnc2c1.Cl . 50

System Plasmodium falciparum. Read-out Inhibition. Item COc1ccccc1C1CCN(C2CCC(NC(=O)/C=C/c3cc(C(F)(F)F)cc(C(F)(F)F)c3)CC2)CC1 (stereo not given) . Report value. 21

// fetch Inhibition for CC(C)(C)c1ccc(-c2cc3c(ccc4nc(N)nc(N)c43)[nH]2)cc1 ; system: Plasmodium falciparum 100

# return Inhibition of Cc1ccc(CNC(=O)c2cc3c(=O)n4ccccc4nc3n(CCCN3CCOCC3)c2=N)cc1 (system: Plasmodium falciparum) 5

Find Inhibition for COc1cccc(CNC(=O)c2ccnc(-c3ccc(CNCCOc4ccccc4)cc3)c2)c1.O=C(O)C(F)(F)F on Plasmodium falciparum and write it down. 10

Tell me Inhibition of CC(C)c1ccc2c(c1)C(=O)c1ccc(C(=O)O)cc1S2(=O)=O when tested on Plasmodium falciparum. 83

Report its Inhibition with Plasmodium falciparum as the test system: FC(F)(F)c1ccc(N2CCCN(Cc3cccc(-c4ccccc4CNCc4ccc5c(c4)OCO5)c3)CC2)nc1.O=C(O)C(F)(F)F 11

Report its Inhibition with Plasmodium falciparum as the test system: COc1cc(CCNC(=N)/C=C/c2ccc(Cl)cc2)ccc1Cl.Cl 16

Param request: Inhibition | system Plasmodium falciparum | item Cc1ccc(Cn2nc(Cl)c(N3CCCNCC3)cc2=O)cc1NC(=O)Nc1ccc(-c2ccccc2)cc1.O=C(O)C(F)(F)F 55

// output Inhibition; input Cc1cc(C(=O)CN2C(=O)NC(C)(c3ccc4ccccc4c3)C2=O)c(C)n1Cc1ccco1 (stereo not given) ; system Plasmodium falciparum 71

Please respond with reported Inhibition (system Plasmodium falciparum) for O=C(NC1CCN(Cc2ccccc2)CC1)c1cc(-c2ccncc2)c(-c2ccc(Cl)c(O)c2)o1.O=C(O)C(F)(F)F . 86

Please indicate recorded Inhibition of Cc1ccc(C(=O)Nc2ccc(Cl)c(N3CCN(CCc4ccccc4)CC3)c2)cc1.O=C(O)C(F)(F)F measured with Plasmodium falciparum. 14

Provide Inhibition, tested on Plasmodium falciparum, for Cc1c[nH]c(-c2cccc(C(=O)NC3CCC(CCN4CCc5ccc(C#N)cc5CC4)CC3)c2)n1.Cl (stereo not given) . 69

Find Inhibition for O=C(Nc1cccc(-c2csc(-c3nc4ccccc4[nH]3)c2)c1)c1cccnc1 on Plasmodium falciparum and write it down. 45

State recorded Inhibition with Plasmodium falciparum, entry COC(=O)c1cccc(N2CCN(CCCNC(=O)/C(=C/C=C/c3cc4cc(Cl)c(Cl)cc4[nH]3)OC)CC2)c1.Cl , no comment. 59

Param request: Inhibition | system Plasmodium falciparum | item Oc1cc(NCc2ccccc2NCc2ccc(Cl)c(Cl)c2)nc2ccccc12 98

Report Inhibition on Plasmodium falciparum for this entry: c1ccc2c(c1)ncc1c3ccccc3[nH]c21 36

Name the recorded Inhibition of COc1cc(NC(=O)C(c2ccc(Cl)cc2)C(C)C)cc(OC)c1 (stereo not given) , assay system Plasmodium falciparum. 98

Provide the reported Inhibition (system: Plasmodium falciparum) for Cl.NC1=NC(Cc2ccccc2)N(c2ccc(Cl)cc2)C(N)=N1 (stereo not given) 4

Provide Plasmodium falciparum Inhibition reading for CC(=O)Nc1nc(C(=O)Nc2cccc(-c3cccc(-c4nc5ccccc5[nH]4)c3)c2)cs1 . 82

Provide Inhibition, tested on Plasmodium falciparum, for Cl.O=c1cc(NCCCNCc2ccc(Cl)c(Cl)c2)[nH]c2ccc(Oc3ccccc3)cc12 . 29

Find Inhibition for Cc1cc(=NN=Cc2ccccc2Cl)c2ccccc2[nH]1 on Plasmodium falciparum and write it down. 30

Supply Inhibition measured with Plasmodium falciparum for CCCN(CC1CC1)c1ncc(-c2ccccc2CNCc2ccccc2O)cn1 . 98

Specify Inhibition for COc1ccc(NC(=O)/C=C/c2ccccc2Cl)cc1OCCN1CCC(N2CCCCC2)CC1 , system Plasmodium falciparum. 49

GET Inhibition where system = Plasmodium falciparum and item = CCCCNCc1ccc(-c2nc(CN(CCCN3CCN(C)CC3)C(=O)Nc3cccc(Cl)c3)cs2)cc1.O=C(O)C(F)(F)F 73

Report Inhibition from Plasmodium falciparum testing of COc1ccc2ncc(Cl)c([C@@H](O)CN3CCC(NCc4cc5c(cn4)OCCO5)CC3)c2c1.Cl 100

Specify Inhibition for N=C(N)Nc1nc(-c2cccc(NC(=O)NCc3cccc4ccccc34)c2)cs1 , system Plasmodium falciparum. 32

Provide Inhibition, tested on Plasmodium falciparum, for O=C(/C=C/c1ccccc1O)NCCCCCN1CCC(c2c[nH]c3ccccc23)CC1 . 1

Give Inhibition for this entry on Plasmodium falciparum: Cc1cccc2nc(-c3ccc(-c4cccc(NC(=O)Nc5ccc6c(c5)OCO6)c4)cc3)[nH]c12 39

Name the recorded Inhibition of c1ccc(C2CCC(N3CCC(N4CCN(c5ccccc5)CC4)CC3)CC2)cc1 (stereo not given) , assay system Plasmodium falciparum. 34
